molecular target: T1, human MASP-2cf CCP1-CCP2-SP (human, UniProt O00187 298-686, limits assumed); test: SPR, target immobilised
T1 construct: domain: CCP1-CCP2-SP; also called human MASP-2 catalytic fragment
T1 sequence (O00187 298-686 limits assumed): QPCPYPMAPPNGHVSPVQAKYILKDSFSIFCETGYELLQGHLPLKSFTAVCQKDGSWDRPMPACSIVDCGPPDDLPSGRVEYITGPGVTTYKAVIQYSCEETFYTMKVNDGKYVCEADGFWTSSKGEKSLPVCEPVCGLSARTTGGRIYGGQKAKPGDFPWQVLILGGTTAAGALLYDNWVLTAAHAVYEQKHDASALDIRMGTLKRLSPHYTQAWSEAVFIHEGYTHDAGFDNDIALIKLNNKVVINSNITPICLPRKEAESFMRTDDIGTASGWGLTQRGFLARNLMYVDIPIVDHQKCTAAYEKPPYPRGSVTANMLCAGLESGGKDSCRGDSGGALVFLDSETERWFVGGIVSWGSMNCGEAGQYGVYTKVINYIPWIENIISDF
Where no end group is shown, it is not given here.
# key: entry, value: Relative affinity

# binder, Relative affinity
rows = [
    ("EVO2a (designed binder, not fully specified; cysteine pairing not given here, Modified TFPI-D2 Kunitz domain; made as m1) KPDFCFLENDPGPCRAVKRRYFYNNQTKQCERFKYGGCLGNMNNFETLEECKNICEDG", "0.6 fold vs EVO2"),
    ("EVO224 (designed binder, not fully specified; cysteine pairing not given here, Modified TFPI-D2 Kunitz domain; made as m1) KPDFCFLENDPGVCRALAVRYFYNNQTKQCERFYYGGCLGNMNNFVTLEECKNICEDG", "3.2 fold vs EVO2"),
]
